B1: library; a variant is named by its letters at N, in order (parent)
chain: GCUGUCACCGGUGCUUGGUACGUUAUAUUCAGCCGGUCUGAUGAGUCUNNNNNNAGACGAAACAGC

Variants of: B1
experiment: FACS-Seq fitted mean relative fluorescence mCherry/BFP without ligand (log10 relative fluorescence); HEK293T overexpressing SLC46A1; higher = higher reporter protein expression
test context: without (6R,S)-folinic acid; ligand present: no

- mutation descriptor: "UUAUAG"
  FACS-Seq fitted mean (log10): 0.192
- mutation descriptor: "GUUACC"
  FACS-Seq fitted mean (log10): 0.497
- mutation descriptor: "UGCCAC"
  FACS-Seq fitted mean (log10): 0.366
- mutation descriptor: "CAACGA"
  FACS-Seq fitted mean (log10): 0.682
- mutation descriptor: "AUACAG"
  FACS-Seq fitted mean (log10): 0.453
- mutation descriptor: "GGUUUG"
  FACS-Seq fitted mean (log10): 0.0685
- mutation descriptor: "GCGCUA"
  FACS-Seq fitted mean (log10): 0.652
- mutation descriptor: "CAGCUG"
  FACS-Seq fitted mean (log10): 0.118
- mutation descriptor: "ACUUAC"
  FACS-Seq fitted mean (log10): 0.478
- mutation descriptor: "GUCCCC"
  FACS-Seq fitted mean (log10): -0.921
- mutation descriptor: "CGUAAU"
  FACS-Seq fitted mean (log10): 0.544
- mutation descriptor: "AAGUAA"
  FACS-Seq fitted mean (log10): 0.225
- mutation descriptor: "UAAUGU"
  FACS-Seq fitted mean (log10): 0.615
- mutation descriptor: "AAGGUA"
  FACS-Seq fitted mean (log10): 0.34

Data provenance is the supplement of paper PMC6757056.
